# Tested on: HOP-62 NSCLC
# run-description: NCI-60 one-dose screen, 48 h (100 = growth as untreated, 0 = no growth, -100 = all killed)
# test-conditions: 10 µM unless noted
The panel holds about 83,000 compounds, 20% with a hit somewhere; the sample as a whole holds those more often.
growth overview
experimental-endpoint: growth (%)

INSERT INTO results (compound, experimental_endpoint, value_measured) VALUES
  ('Cc1cc(C(NC(=O)CCCCCNc2cccc3c2C(=O)N(C2CCC(=O)NC2=O)C3=O)c2ccc3c(c2)OC(F)(F)O3)c(O)c2ncccc12 (stereo not given)', 'growth', 51.1),
  ('c1n[nH]cc1-c1nc2ccc3[nH]ncc3c2c2c1CCCC2', 'growth', 14.7),
  ('O=C1Nc2ccccc2/C1=C/c1ccc(COCC2CO2)n1-c1ccc(O)cc1 (stereo not given)', 'growth', 105),
  ('C=CCn1c(SCC(=O)Nc2ccc(C(=O)/C=C/c3ccc(Cl)cc3)cc2)nnc1-c1c[nH]c2ccccc12', 'growth', 88.8),
  ('O=C(CNc1nc(-c2cccc([N+](=O)[O-])c2)cs1)Nc1cccc([N+](=O)[O-])c1', 'growth', 17.3);
